assay_procedure: Pharmacokinetics after single i.v. or oral dose in rats
Type: in vivo, Sprague-Dawley rats
condition_notes: male, Sprague-Dawley, rat, plasma, iv, 1 mg/kg, Plasma concentration of compound measured after clozapine administration, 240 min, clozapine i.v. 1 mg/kg, mean ± SD
measured_property: concentration at 240 min (ng/mL)
Numeric answer only, unit ng/mL assumed.

Dear colleague, I am looking for the recorded concentration at 240 min of the following compound: Clc1ccc2c(c1)N=C(N1CCNCC1)c1ccccc1N2
0.8

---

assay_procedure: Pharmacokinetics after i.v. or oral dose in dogs
Assay type: in vivo, beagle dogs
condition_notes: beagle, dog, plasma, po, 10 mg/kg, Plasma concentration after NDMC administration, 360 min, NDMC p.o. 10 mg/kg
measured_property: concentration at 360 min (ng/mL)
Numeric answer only, unit ng/mL assumed.

Dear colleague, I am looking for the recorded concentration at 360 min of the following compound: Clc1ccc2c(c1)N=C(N1CCNCC1)c1ccccc1N2
261

---

assay_procedure: Pharmacokinetics after single i.v. or oral dose in rats
Assay type: in vivo, Sprague-Dawley rats
condition_notes: male, Sprague-Dawley, rat, plasma, po, 10 mg/kg, Plasma concentration after NDMC administration, 10 min, NDMC p.o. 10 mg/kg, mean ± SD, two p.o. groups
measured_property: concentration at 10 min (ng/mL)
Numeric answer only, unit ng/mL assumed.

Dear colleague, I am looking for the recorded concentration at 10 min of the following molecule: Clc1ccc2c(c1)N=C(N1CCNCC1)c1ccccc1N2
305

---

assay_procedure: Pharmacokinetics after i.v. or oral dose in dogs
Format: in vivo, beagle dogs
condition_notes: beagle, dog, plasma, iv, 1 mg/kg, Plasma concentration after NDMC administration, 180 min, NDMC i.v. 1 mg/kg
measured_property: concentration at 180 min (ng/mL)
Numeric answer only, unit ng/mL assumed.

Dear colleague, I am looking for the recorded concentration at 180 min of the following compound: Clc1ccc2c(c1)N=C(N1CCNCC1)c1ccccc1N2 [NDMC]
27

---

assay_procedure: Pharmacokinetics after single i.v. or oral dose in rats
Assay type: in vivo, Sprague-Dawley rats
condition_notes: male, Sprague-Dawley, rat, plasma, iv, 1 mg/kg, Plasma concentration of compound measured after clozapine administration, 120 min, clozapine i.v. 1 mg/kg, mean ± SD
measured_property: concentration at 120 min (ng/mL)
Numeric answer only, unit ng/mL assumed.

Dear colleague, I am looking for the recorded concentration at 120 min of the following molecule: Clc1ccc2c(c1)N=C(N1CCNCC1)c1ccccc1N2
2.3

---

assay_procedure: Pharmacokinetics after single i.v. or oral dose in rats
Format: in vivo, Sprague-Dawley rats
condition_notes: male, Sprague-Dawley, rat, plasma, po, 10 mg/kg, Plasma concentration of compound measured after clozapine administration, 180 min, clozapine p.o. 10 mg/kg, mean ± SD
measured_property: concentration at 180 min

Dear colleague, I am looking for the recorded concentration at 180 min of the following compound: Clc1ccc2c(c1)N=C(N1CCNCC1)c1ccccc1N2 [NDMC]
13.4 ng/mL

---

assay_procedure: Pharmacokinetics after single i.v. or oral dose in rats
Type: in vivo, Sprague-Dawley rats
condition_notes: male, Sprague-Dawley, rat, plasma, iv, 1 mg/kg, Plasma concentration after NDMC administration, 10 min, NDMC i.v. 1 mg/kg, mean ± SD
measured_property: concentration at 10 min (ng/mL)
Numeric answer only, unit ng/mL assumed.

Dear colleague, I am looking for the recorded concentration at 10 min of the following compound: Clc1ccc2c(c1)N=C(N1CCNCC1)c1ccccc1N2 [NDMC]
540
